Measurement target: tau aggregates (Tau-K18 protein) (Homo sapiens, UniProt P10636)
Construct: aggregation of Tau-K18 protein (0.5 mg/ml in PBS) purified and isolated from E. coli; made in house; host or cells: E. coli
Sequence (P10636 561-685 limits assumed): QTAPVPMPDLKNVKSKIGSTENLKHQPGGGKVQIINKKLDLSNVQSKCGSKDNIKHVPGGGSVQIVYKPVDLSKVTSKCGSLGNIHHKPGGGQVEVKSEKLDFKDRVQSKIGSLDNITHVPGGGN
Assay method text: In vitro binding assay (fluorescence labeling ability) to tau aggregates
Measurement conditions: in vitro screening as fluorescent probes
Measurement label: selectivity for tau aggregates over amyloid aggregates (times)
Give just the numeric value; times need not be written.

COc1ccc2nc(C(=O)/C=C/C=C/c3ccc(N(C)C)nc3)ccc2c1 [Compound 16d] | 3.5
COc1ccc2nc(/C=C/C=C/c3cccc([N+](=O)[O-])c3)ccc2c1 [Compound 15g] | 5.8
COc1ccc2nc(/C=C/C(=O)c3ccc(Br)cc3)ccc2c1 [Compound 13e] | 3.8

Now look at this one.
[ask] Using the record for COc1ccc2nc(/C=C/C(=O)c3ccc(N(C)C)cc3)ccc2c1 [Compound 13a] , state its measured selectivity for tau aggregates over amyloid aggregates.
[reply] 4.6

* * *

Assay method text: Measurement of absorbance and fluorescence of synthesized compound in ethanol
Assay type: physicochemical
Measurement conditions: 10 μM in ethanol, average of three measurements
Binary call on λem: Maximum emission wavelength with cut-off 600 nm: strictly below means label 1, and equality or higher means label 0.

COc1ccc2nc(/C=C/C=C/c3cccc([N+](=O)[O-])c3)ccc2c1 [Compound 15g] | label 1
COc1ccc2nc(C(=O)/C=C/C=C/c3ccc(N(C)C)nc3)ccc2c1 [Compound 16d] | label 0
Nc1ccc(C(=O)/C=C/c2ccc3cc(O)ccc3n2)cc1 [Compound 13c] | label 1
COc1ccc2nc(C(=O)/C=C/C=C/c3ccc(N(C)CCO)cc3)ccc2c1 [Compound 16e] | label 0
COc1ccc2nc(/C=C/c3ccncc3)ccc2c1 [Compound 14b] | label 1

# evaluate next
[ask] For this compound, is λem: Maximum emission wavelength lower than 600 nm? Fc1ccc(-c2ccc3c(c2)[nH]c2ccncc23)cn1 [Compound T807, reference compound]
[reply] label 1

* * *

Measurement target: tau aggregates (Tau-K18 protein) (Homo sapiens)
Construct: aggregation of Tau-K18 protein (0.5 mg/ml in PBS) purified and isolated from E. coli; made in house; host or cells: E. coli
Assay method text: In vitro binding assay (fluorescence labeling ability) to tau aggregates
Measurement conditions: compound 10 μM
Items are presented alongside their recorded SItaumono: selectivity index, tau aggregate versus tau monomer.
Give a plain numeric answer without units written out.

Sample records with SItaumono: selectivity index, tau aggregate versus tau monomer:
COc1ccc2nc(/C=C/c3ccc(C(F)(F)F)cc3)ccc2c1 [Compound 14a] | 2.0
CNc1ccc(/C=C/C=C/C(=O)c2ccc3cc(OC)ccc3n2)cc1 [Compound 16b] | 2.1
COc1ccc2nc(/C=C/C=C/c3cccc(Cl)c3)ccc2c1 [Compound 15f] | 4.4
COc1ccc2nc(C(=O)/C=C/C=C/c3ccc(N(C)C)nc3)ccc2c1 [Compound 16d] | 3.9

[ask] Using the record for COc1ccc2nc(/C=C/C=C/c3ccc([N+](=O)[O-])nc3)ccc2c1 [Compound 15e] , state its measured SItaumono: selectivity index, tau aggregate versus tau monomer.
[reply] 4.5

[ask] Using the record for COc1ccc2nc(/C=C/c3ccncc3)ccc2c1 [Compound 14b] , state its measured SItaumono: selectivity index, tau aggregate versus tau monomer.
[reply] 1.3

[ask] Using the record for COc1ccc2nc(/C=C/C=C/c3ccc(F)cc3F)ccc2c1 [Compound 15h] , state its measured SItaumono: selectivity index, tau aggregate versus tau monomer.
[reply] 2.8

[ask] Using the record for CNc1ccc(/C=C/C=C/c2ccc3cc(OC)ccc3n2)cc1 [Compound 15b] , state its measured SItaumono: selectivity index, tau aggregate versus tau monomer.
[reply] 3.6

[ask] Using the record for COc1ccc2nc(/C=C/C(=O)c3ccc(Br)cc3)ccc2c1 [Compound 13e] , state its measured SItaumono: selectivity index, tau aggregate versus tau monomer.
[reply] 2.2
